Value source: patent US20250242020A1

# tested-on: recombinant human ROR1 extracellular domain with a C-terminal 6xHis tag (human) (UniProt Q01973)
# Sequence (Q01973 other isoform, or with tags, fused parts or gaps): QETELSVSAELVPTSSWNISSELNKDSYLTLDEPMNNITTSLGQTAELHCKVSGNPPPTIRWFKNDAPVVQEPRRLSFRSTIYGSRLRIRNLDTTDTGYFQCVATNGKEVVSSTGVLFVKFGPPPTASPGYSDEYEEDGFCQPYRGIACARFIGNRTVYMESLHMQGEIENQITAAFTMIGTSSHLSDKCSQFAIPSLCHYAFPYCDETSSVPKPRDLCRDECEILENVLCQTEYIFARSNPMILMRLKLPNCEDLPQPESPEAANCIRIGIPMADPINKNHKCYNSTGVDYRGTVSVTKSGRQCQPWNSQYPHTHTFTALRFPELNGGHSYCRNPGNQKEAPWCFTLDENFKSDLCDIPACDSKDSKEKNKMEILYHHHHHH
# assay: SPR (Biacore T200): scFv-mFc captured on anti-mouse IgG chip, ROR1 ECD 6xHis injected, multi-cycle kinetics, 1:1 model
property-measured: pKd
# pKd = -log10(concentration in molar units)

Worked examples, 4 binders total:
anti-ROR1 scFv ROR1-3 fused to murine IgG2a Fc (scFv-mFc) (Fc fusion, part only; not given: murine IgG2a Fc and junction, not shown: another chain or arm of the molecule; a dimerising Fc or GST) scFv: QVQLVQSGAEVKKPGASVKVSCKASGYTFTSYGISWVRQAPGQGLEWMGWISAYNGNTKYAQKLQGRVTMTTDTSTSTAYMELRSLRSDDTAVYYCARDEDILTGYNYYGMDVWGQGTTVTVSSGGGGSGGGGSGGGGSQLVLTQSPSASASLGASVKLTCTLSSGHSSYAIAWHQQQPEKGPRYLMKLNSDGSHSKGDGIPDRFSGSSSGAERYLTISSLQSEDEADYYCQTWGTGIRVFGGGTKLTVLG : 9.03
anti-ROR1 scFv ROR1-1 fused to murine IgG2a Fc (scFv-mFc) (Fc fusion, part only; not given: murine IgG2a Fc and junction, not shown: another chain or arm of the molecule; a dimerising Fc or GST) scFv: QVQLQESGPGLVKPSETLSLTCTVSGGSISNYYWSWIRQPAGKGLEWIGRIYTSGSTNYNPSLKSRVTMSVDTSKNQFSLKLSSLTAADTAIYYCARYYDILTGFFDYWGQGTLVTVSSGGGGSGGGGSGGGGSVIWMTQSPSLLSASTGDSVTISCRMSQDISSYLAWYQQKPGKAPELLIYAASSLQSGVPSRFSGSGSGTDFTLTISSLQSEDFATYYCQQYDSFPPTFGQGTKVEFKR : 7.38
reference R12 scFv fused to murine IgG2a Fc (scFv-mFc) (Fc fusion, part only; not given: murine IgG2a Fc and junction, not shown: another chain or arm of the molecule; a dimerising Fc or GST) scFv: QEQLVESGGRLVTPGGSLTLSCKASGFDFSAYYMSWVRQAPGKGLEWIATIYPSSGKTYYATWVNGRFTISSDNAQNTVDLQMNSLTAADRATYFCARDSYADDGALFNIWGPGTLVTISSGGGGSGGGGSGGGGSELVLTQSPSVSAALGSPAKITCTLSSAHKTDTIDWYQQLQGEAPRYLMQVQSDGSYTKRPGVPDRFSGSSSGADRYLIIPSVQADDEADYYCGADYIGGYVFGGGTQLTVTG : 9.03
anti-ROR1 scFv ROR1-2 fused to murine IgG2a Fc (scFv-mFc) (Fc fusion, part only; not given: murine IgG2a Fc and junction, not shown: another chain or arm of the molecule; a dimerising Fc or GST) scFv: QLQLQESGPGLVKPSETLSLTCTVSGGSINSTTSYWAWIRQPPGKGLEWIGTIFYSGKTYNNPSLKSRVTMSVDTSKNHFSLKVNSVTAADTAVYYCARFDYGFHDAFDIWGQGTMVTVSSGGGGSGGGGSGGGGSEIVMTQSPATLSLSPGERATLSCRASQSITSDYLSWYQQKPGQAPRLLIYGASTRATGIPARFSGSGSGTDFTLTISSLQPEDFVVYYCQQDYNLYTFGQGTKLEIKR : 10.02

Kindly review the next binder as well.
Input: Which value of pKd has been reported for anti-ROR1 scFv ROR1-4 fused to murine IgG2a Fc (scFv-mFc) (Fc fusion, part only; not given: murine IgG2a Fc and junction, not shown: another chain or arm of the molecule; a dimerising Fc or GST) scFv: QVQLLQSGAEVKKPGASVKVSCKASGYTFTSYGISWVRQAPGQGLEWMGWISAYTGNTRYAQKLQGRVTMTTDTSTSTAYMELRSLRSDDTAVYYCAREEGATTDYDYYGMDVWGQGTAVTVSSGGGGSGGGGSGGGGSQLVLTQSPSASASLGASVKLTCTLSSGHSSYAIAWHQQQPEKGPRYLMKLNSDGSHSKGDGIPDRFSGSSSGAERYLTISSLQSEDEADYYCQTWGTGIRVFGGGTKLTVLG in the records?
Output: 7.86
